Listed here are compounds together with their documented Tmax.
- protocol.description: Pharmacokinetic evaluation in dogs after a 10 mg/kg dose
- condition.label: dog, plasma, po, Tmax (time to achieve maximum concentration in blood), oral 10 mg/kg, HPLC (parent drug)
Express the result in min but write the number alone.

# smiles.structure, measured
rows = [
    ("CC[C@H]1OC(=O)[C@H](C)[C@@H](O[C@H]2C[C@@](C)(OC)[C@@H](O)[C@H](C)O2)[C@H](C)[C@@H](O[C@@H]2O[C@H](C)C[C@H](N(C)C)[C@H]2O)[C@](C)(O)C[C@@H](C)[C@@H]2O[C@@]1(C)[C@@H](N)[C@H]2C", 15),
    ("CC[C@H]1OC(=O)[C@H](C)[C@@H](O[C@H]2C[C@@](C)(OC)[C@@H](O)[C@H](C)O2)[C@H](C)[C@@H](O[C@@H]2O[C@H](C)C[C@H](N(C)C)[C@H]2O)[C@](C)(O)C[C@@H](C)[C@@H]2O[C@@]1(C)[C@@H](O)[C@H]2C", 15),
    ("CC[C@H]1OC(=O)[C@H](C)[C@@H](O[C@H]2C[C@@](C)(OC)[C@@H](N)[C@H](C)O2)[C@H](C)[C@@H](O[C@@H]2O[C@H](C)C[C@H](N(C)C)[C@H]2O)[C@](C)(O)C[C@@H](C)[C@@H]2O[C@@]1(C)[C@@H](N)[C@H]2C", 30),
]

What value of measured Tmax is listed for `CC[C@H]1OC(=O)[C@H](C)[C@@H](O[C@H]2C[C@@](C)(OC)[C@H](N)[C@H](C)O2)[C@H](C)[C@@H](O[C@@H]2O[C@H](C)C[C@H](N(C)C)[C@H]2O)[C@](C)(O)C[C@@H](C)[C@@H]2O[C@@]1(C)[C@@H](O)[C@H]2C` ? 24

What value of measured Tmax is listed for `CC[C@H]1OC(=O)[C@H](C)[C@@H](O[C@H]2C[C@@](C)(OC)[C@@H](O)[C@H](C)O2)[C@H](C)[C@@H](O[C@@H]2O[C@H](C)C[C@H](N(C)C)[C@H]2O)[C@](C)(O)C[C@@H](C)[C@@H]2O[C@@]1(C)C(=O)[C@H]2C` ? 240

* * *

- Test system: Escherichia coli H560
- protocol.description: In-vitro antimicrobial activity primary screen (agar dilution MIC)
- Assay type: cell-based
- condition.label: Escherichia coli, H560, 24 h
measured.metric: MIC (µg/mL)
Express the result in µg/mL but write the number alone.

# smiles.structure, output.unit, MIC
records = [
    ("CC[C@H]1OC(=O)[C@H](C)[C@@H](O[C@H]2C[C@@](C)(OC)[C@H](N)[C@H](C)O2)[C@H](C)[C@@H](O[C@@H]2O[C@H](C)C[C@H](N(C)C)[C@H]2O)[C@](C)(O)C[C@@H](C)[C@@H]2O[C@@]1(C)C(=O)[C@H]2C", "µg/mL", 25),
]

Now for the compound whose MIC we want.
What value of measured MIC is listed for `CC[C@H]1OC(=O)[C@H](C)[C@@H](O[C@H]2C[C@@](C)(OC)[C@@H](O)[C@H](C)O2)[C@H](C)[C@@H](O[C@@H]2O[C@H](C)C[C@H](N(C)C)[C@H]2O)[C@](C)(OC)C[C@@H](C)C2=C(C)C(=O)[C@]1(C)O2` ? 100

* * *

- protocol.description: Pharmacokinetic evaluation in dogs after a 10 mg/kg dose
- condition.label: dog, plasma, po, t1/2 (biological half life), oral 10 mg/kg, microbiological assay
Lab note: cut-off is 6 h. Strictly less in half-life is t. Exactly 6 h or more is f.

Example cases with answers are listed next.
# smiles.structure, class.name
rows = [
    ("CC[C@H]1OC(=O)[C@H](C)[C@@H](O[C@H]2C[C@@](C)(OC)[C@@H](N)[C@H](C)O2)[C@H](C)[C@@H](O[C@@H]2O[C@H](C)C[C@H](N(C)C)[C@H]2O)[C@](C)(O)C[C@@H](C)[C@@H]2O[C@@]1(C)[C@@H](N)[C@H]2C", "f"),
    ("CC[C@H]1OC(=O)[C@H](C)[C@@H](O[C@H]2C[C@@](C)(OC)[C@H](N)[C@H](C)O2)[C@H](C)[C@@H](O[C@@H]2O[C@H](C)C[C@H](N(C)C)[C@H]2O)[C@](C)(O)C[C@@H](C)[C@@H]2O[C@@]1(C)[C@@H](O)[C@H]2C", "f"),
    ("CC[C@H]1OC(=O)[C@H](C)[C@@H](O[C@H]2C[C@@](C)(OC)[C@@H](O)[C@H](C)O2)[C@H](C)[C@@H](O[C@@H]2O[C@H](C)C[C@H](N(C)C)[C@H]2O)[C@](C)(O)C[C@@H](C)[C@@H]2O[C@@]1(C)[C@@H](N)[C@H]2C", "t"),
    ("CC[C@H]1OC(=O)[C@H](C)[C@@H](O[C@H]2C[C@@](C)(OC)[C@@H](O)[C@H](C)O2)[C@H](C)[C@@H](O[C@@H]2O[C@H](C)C[C@H](N(C)C)[C@H]2O)[C@](C)(O)C[C@@H](C)[C@@H]2O[C@@]1(C)[C@@H](O)[C@H]2C", "t"),
]

# ---- query compound ----
Bench note: check whether `CC[C@H]1OC(=O)[C@H](C)[C@@H](O[C@H]2C[C@@](C)(OC)[C@@H](O)[C@H](C)O2)[C@H](C)[C@@H](O[C@@H]2O[C@H](C)C[C@H](N(C)C)[C@H]2O)[C@](C)(O)C[C@@H](C)[C@@H]2O[C@@]1(C)C(=O)[C@H]2C` shows half-life below 6 h f

* * *

- Tested on: Streptococcus pyrogenes 2548 INDUC
- protocol.description: In-vitro antimicrobial activity primary screen (agar dilution MIC)
- Format: cell-based
- condition.label: Streptococcus, 2548INDUC, 24 h, BHI agar, 20-24 h
measured.metric: MIC (mg/L)
Express the result in mg/L but write the number alone.

What value of measured MIC is listed for `CC[C@H]1OC(=O)[C@H](C)[C@@H](O[C@H]2C[C@@](C)(OC)[C@H](NS(C)(=O)=O)[C@H](C)O2)[C@H](C)[C@@H](O[C@@H]2O[C@H](C)C[C@H](N(C)C)[C@H]2O)[C@](C)(O)C[C@@H](C)[C@@H]2O[C@@]1(C)C(=O)[C@H]2C` ? 0.78

What value of measured MIC is listed for `CC[C@H]1OC(=O)[C@H](C)[C@@H](O[C@H]2C[C@@](C)(OC)[C@H](N)[C@H](C)O2)[C@H](C)[C@@H](O[C@@H]2O[C@H](C)C[C@H](N(C)C)[C@H]2O)[C@](C)(O)C[C@@H](C)[C@@H]2O[C@@]1(C)C(=O)[C@H]2C` ? 0.39

What value of measured MIC is listed for `CC[C@H]1OC(=O)[C@H](C)[C@@H](O[C@H]2C[C@@](C)(OC)[C@@H](O)[C@H](C)O2)[C@H](C)[C@@H](O[C@@H]2O[C@H](C)C[C@H](N(C)C)[C@H]2O)[C@](C)(O)C[C@@H](C)[C@@H]2O[C@@]1(C)[C@@H](O)[C@H]2C` ? 3.1

What value of measured MIC is listed for `CC[C@H]1OC(=O)[C@H](C)[C@@H](O[C@H]2C[C@@](C)(OC)[C@@H](N)[C@H](C)O2)[C@H](C)[C@@H](O[C@@H]2O[C@H](C)C[C@H](N(C)C)[C@H]2O)[C@](C)(O)C[C@@H](C)[C@@H]2O[C@@]1(C)C(=O)[C@H]2C` ? 3.1

* * *

Listed here are compounds together with their documented MIC.
- Test system: Staphylococcus epidermidis 3519
- protocol.description: In-vitro antimicrobial activity primary screen (agar dilution MIC)
- Format: cell-based
- condition.label: Staphylococcus epidermidis, 3519, 24 h, BHI agar, 20-24 h
Express the result in µg/mL but write the number alone.

# compound, measured
data = [
    ("CC[C@H]1OC(=O)[C@H](C)[C@@H](O[C@H]2C[C@@](C)(OC)[C@@H](NS(C)(=O)=O)[C@H](C)O2)[C@H](C)[C@@H](O[C@@H]2O[C@H](C)C[C@H](N(C)C)[C@H]2O)[C@](C)(O)C[C@@H](C)[C@@H]2O[C@@]1(C)C(=O)[C@H]2C", 0.39),
]

What value of measured MIC is listed for `CC[C@H]1OC(=O)[C@H](C)[C@@H](O[C@H]2C[C@@](C)(OC)[C@H](NS(C)(=O)=O)[C@H](C)O2)[C@H](C)[C@@H](O[C@@H]2O[C@H](C)C[C@H](N(C)C)[C@H]2O)[C@](C)(O)C[C@@H](C)[C@@H]2O[C@@]1(C)C(=O)[C@H]2C` ? 0.78

* * *

Listed here are compounds together with their documented MIC.
- Tested on: Staphylococcus aureus A5177
- protocol.description: In-vitro antimicrobial activity primary screen (agar dilution MIC)
- Assay type: cell-based
- condition.label: Staphylococcus aureus, A5177, 24 h, Staphylococcus aureus A5177; BHI agar, 20-24 h
The reply should consist of the numeric value with the unit placed after it.

# count of solved cases: 3
# smiles.structure, measured.metric, measured
data = [
    ("CC[C@H]1OC(=O)[C@H](C)[C@@H](O[C@H]2C[C@@](C)(OC)[C@H](O)[C@H](C)O2)[C@H](C)[C@@H](O[C@@H]2O[C@H](C)C[C@H](N(C)C)[C@H]2O)[C@](C)(O)C[C@@H](C)[C@@H]2O[C@@]1(C)C(=O)[C@H]2C", "MIC", "1.56 µg/mL"),
    ("CC[C@H]1OC(=O)[C@H](C)[C@@H](O[C@H]2C[C@@](C)(OC)[C@H](N=CN(C)C)[C@H](C)O2)[C@H](C)[C@@H](O[C@@H]2O[C@H](C)C[C@H](N(C)C)[C@H]2O)[C@](C)(O)C[C@@H](C)[C@@H]2O[C@@]1(C)C(=O)[C@H]2C", "MIC", "0.78 µg/mL"),
    ("CC[C@H]1OC(=O)[C@H](C)[C@@H](O[C@H]2C[C@@](C)(OC)[C@H](N)[C@H](C)O2)[C@H](C)[C@@H](O[C@@H]2O[C@H](C)C[C@H](N(C)C)[C@H]2O)[C@](C)(O)C[C@@H](C)[C@@H]2O[C@@]1(C)C(=O)[C@H]2C", "MIC", "0.39 µg/mL"),
]

What value of measured MIC is listed for `CC[C@H]1OC(=O)[C@H](C)[C@@H](O[C@H]2C[C@@](C)(OC)[C@@H](NS(C)(=O)=O)[C@H](C)O2)[C@H](C)[C@@H](O[C@@H]2O[C@H](C)C[C@H](N(C)C)[C@H]2O)[C@](C)(O)C[C@@H](C)[C@@H]2O[C@@]1(C)C(=O)[C@H]2C` ? 0.39 µg/mL

What value of measured MIC is listed for `CC[C@H]1OC(=O)[C@H](C)[C@@H](O[C@H]2C[C@@](C)(OC)[C@H](N)[C@H](C)O2)[C@H](C)[C@@H](O[C@@H]2O[C@H](C)C[C@H](N(C)C)[C@H]2O)[C@](C)(O)C[C@@H](C)[C@@H]2O[C@@]1(C)[C@@H](O)[C@H]2C` ? 0.78 µg/mL

What value of measured MIC is listed for `CC[C@H]1OC(=O)[C@H](C)[C@@H](O[C@H]2C[C@@](C)(OC)[C@@H](N)[C@H](C)O2)[C@H](C)[C@@H](O[C@@H]2O[C@H](C)C[C@H](N(C)C)[C@H]2O)[C@](C)(O)C[C@@H](C)[C@@H]2O[C@@]1(C)C(=O)[C@H]2C` ? 3.1 µg/mL

What value of measured MIC is listed for `CC[C@H]1OC(=O)[C@H](C)[C@@H](O[C@H]2C[C@@](C)(OC)[C@H](N)[C@H](C)O2)[C@H](C)[C@@H](O[C@@H]2O[C@H](C)C[C@H](N(C)C)[C@H]2O)[C@](C)(O)C[C@@H](C)[C@@H]2O[C@@]1(C)[C@@H](N)[C@H]2C` ? 0.78 µg/mL

What value of measured MIC is listed for `CC[C@H]1OC(=O)[C@H](C)[C@@H](O[C@H]2C[C@@](C)(OC)[C@H](NS(C)(=O)=O)[C@H](C)O2)[C@H](C)[C@@H](O[C@@H]2O[C@H](C)C[C@H](N(C)C)[C@H]2O)[C@](C)(O)C[C@@H](C)[C@@H]2O[C@@]1(C)C(=O)[C@H]2C` ? 0.39 µg/mL

What value of measured MIC is listed for `CC[C@H]1OC(=O)[C@H](C)[C@@H](O[C@H]2C[C@@](C)(OC)[C@@H](O)[C@H](C)O2)[C@H](C)[C@@H](O[C@@H]2O[C@H](C)C[C@H](N(C)C)[C@H]2O)[C@](C)(O)C[C@@H](C)[C@@H]2O[C@@]1(C)[C@@H](O)[C@H]2C` ? 3.1 µg/mL
